Entries and their measured Ki follow.
Sequence of the target: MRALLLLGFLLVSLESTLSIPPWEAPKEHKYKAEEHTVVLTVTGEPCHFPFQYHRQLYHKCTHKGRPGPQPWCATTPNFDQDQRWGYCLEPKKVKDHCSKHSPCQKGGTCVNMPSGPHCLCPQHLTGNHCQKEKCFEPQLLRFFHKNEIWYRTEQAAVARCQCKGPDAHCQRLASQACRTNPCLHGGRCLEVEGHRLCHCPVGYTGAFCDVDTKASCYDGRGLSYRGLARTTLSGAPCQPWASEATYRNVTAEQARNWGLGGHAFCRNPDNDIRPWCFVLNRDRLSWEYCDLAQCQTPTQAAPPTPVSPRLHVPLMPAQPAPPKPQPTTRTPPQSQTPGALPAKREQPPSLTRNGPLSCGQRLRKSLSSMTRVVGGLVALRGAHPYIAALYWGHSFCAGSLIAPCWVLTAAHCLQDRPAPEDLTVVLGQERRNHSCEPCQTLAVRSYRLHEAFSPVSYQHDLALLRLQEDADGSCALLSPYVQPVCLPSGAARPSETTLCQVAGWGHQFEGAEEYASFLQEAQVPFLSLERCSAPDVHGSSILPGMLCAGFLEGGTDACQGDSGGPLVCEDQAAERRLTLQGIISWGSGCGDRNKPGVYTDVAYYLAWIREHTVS

Data request: Tell me its Ki given N=C(N)c1ccc(CNC(=O)[C@@H]2Cc3ccc(cc3)NC(=O)CN3CCN(CC3)CC(=O)Nc3ccc(cc3)C[C@@H](NS(=O)(=O)Cc3ccccc3)C(=O)N2)cc1.O=C(O)C(F)(F)F as the entry.
Data returned: > 100 µM

Please examine the following record next.
Data request: Tell me its Ki given N=C(N)c1ccc(CNC(=O)[C@@H]2Cc3ccc(cc3)NC(=O)CCN3CCN(CCC(=O)Nc4ccc(cc4)C[C@@H](NS(=O)(=O)Cc4ccccc4)C(=O)N2)CC3)cc1.O=C(O)C(F)(F)F as the entry.
Data returned: > 20 µM

----------
# pKi per entry for Trypsin (Sus scrofa, UniProt P00761)
pKi (log units): -log10 of the concentration in mol/L.

Data request: Under Trypsin (Sus scrofa, UniProt P00761): report pKi of N=C(N)c1ccc(CNC(=O)[C@@H]2Cc3ccc(cc3)NC(=O)CCN3CCN(CCC(=O)Nc4cccc(c4)C[C@@H](NS(=O)(=O)Cc4ccccc4)C(=O)N2)CC3)cc1 .
Data returned: 9.22

Data request: Under Trypsin (Sus scrofa, UniProt P00761): report pKi of N=C(N)c1ccc(CNC(=O)[C@@H]2Cc3ccc(cc3)NC(=O)CN3CCN(CC3)CC(=O)Nc3ccc(cc3)C[C@@H](NS(=O)(=O)Cc3ccccc3)C(=O)N2)cc1.O=C(O)C(F)(F)F .
Data returned: 7.20

Data request: Under Trypsin (Sus scrofa, UniProt P00761): report pKi of N=C(N)c1ccc(CNC(=O)[C@@H]2Cc3cccc(c3)NC(=O)CN3CCN(CC3)CC(=O)Nc3cccc(c3)C[C@@H](NS(=O)(=O)Cc3ccccc3)C(=O)N2)cc1 .
Data returned: 8.47

Data request: Under Trypsin (Sus scrofa, UniProt P00761): report pKi of N=C(N)c1ccc(CNC(=O)[C@@H]2Cc3ccc(cc3)NC(=O)CCN3CCCN(CCC(=O)Nc4ccc(cc4)C[C@@H](NS(=O)(=O)Cc4ccccc4)C(=O)N2)CC3)cc1 .
Data returned: 7.99

Please examine the following record next.
Data request: Under Trypsin (Sus scrofa, UniProt P00761): report pKi of N=C(N)c1ccc(CNC(=O)[C@@H]2Cc3ccc(cc3)NC(=O)CN3CCN(CC3)CC(=O)Nc3cccc(c3)C[C@@H](NS(=O)(=O)Cc3ccccc3)C(=O)N2)cc1 .
Data returned: 8.11

----------
Molecular target: Cytochrome P450 2C19 (Homo sapiens) (UniProt P33261)
Sequence (P33261 whole entry, looked up): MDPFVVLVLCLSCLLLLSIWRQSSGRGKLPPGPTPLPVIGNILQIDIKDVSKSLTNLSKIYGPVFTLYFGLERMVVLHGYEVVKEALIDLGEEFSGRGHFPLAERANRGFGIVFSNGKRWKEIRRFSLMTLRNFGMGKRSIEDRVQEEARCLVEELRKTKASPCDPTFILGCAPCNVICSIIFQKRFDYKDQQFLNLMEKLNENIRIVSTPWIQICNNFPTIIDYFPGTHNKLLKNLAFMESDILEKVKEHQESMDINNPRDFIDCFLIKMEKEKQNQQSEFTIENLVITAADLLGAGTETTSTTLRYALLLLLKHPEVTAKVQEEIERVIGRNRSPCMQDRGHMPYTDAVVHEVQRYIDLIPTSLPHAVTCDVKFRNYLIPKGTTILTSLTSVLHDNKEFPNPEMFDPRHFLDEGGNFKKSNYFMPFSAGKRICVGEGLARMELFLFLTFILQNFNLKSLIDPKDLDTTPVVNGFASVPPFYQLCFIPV
Assay: Inhibition of human recombinant CYP2C19 expressed in Trichoplusia ni BTI-TN-5B1-4 cells preincubated for 15 mins measured after 30 mins by spectrofluorimetry
observable: IC50

Data request: Tell me its IC50 given N=C(N)c1ccc(CNC(=O)[C@@H]2Cc3ccc(cc3)NC(=O)CCN3CCN(CCC(=O)Nc4ccc(cc4)C[C@@H](NS(=O)(=O)Cc4ccccc4)C(=O)N2)CC3)cc1.O=C(O)C(F)(F)F as the entry.
Data returned: > 100 µM

Please examine the following record next.
Data request: Tell me its IC50 given N=C(N)c1ccc(CNC(=O)[C@@H]2Cc3ccc(cc3)NC(=O)CN3CCN(CC3)CC(=O)Nc3ccc(cc3)C[C@@H](NS(=O)(=O)Cc3ccccc3)C(=O)N2)cc1.O=C(O)C(F)(F)F as the entry.
Data returned: > 100 µM

----------
Molecular target: L-type Ca channel, phenylalkylamine site (Rattus norvegicus, UniProt P22002+P27732+Q02485)
Test: Displacement of [3H](-)-desmethoxyverapamil from wistar rat Ca channel L-type phenylalkylamine receptor at 10 uM
Details: probe [3H](-)-desmethoxyverapamil
Entries and their measured inhibition at 10 µM follow.
Entry rule: numbers only, all in %.

Data request: Tell me its inhibition at 10 µM given N=C(N)c1ccc(CNC(=O)[C@@H]2Cc3ccc(cc3)NC(=O)CCN3CCN(CCC(=O)Nc4ccc(cc4)C[C@@H](NS(=O)(=O)Cc4ccccc4)C(=O)N2)CC3)cc1.O=C(O)C(F)(F)F as the entry.
Data returned: 3

Please examine the following record next.
Data request: Tell me its inhibition at 10 µM given N=C(N)c1ccc(CNC(=O)[C@@H]2Cc3ccc(cc3)NC(=O)CN3CCN(CC3)CC(=O)Nc3ccc(cc3)C[C@@H](NS(=O)(=O)Cc3ccccc3)C(=O)N2)cc1.O=C(O)C(F)(F)F as the entry.
Data returned: 13

----------
Biological target: Plasma kallikrein (Homo sapiens)
Sequence (P03952 20-390 limits assumed): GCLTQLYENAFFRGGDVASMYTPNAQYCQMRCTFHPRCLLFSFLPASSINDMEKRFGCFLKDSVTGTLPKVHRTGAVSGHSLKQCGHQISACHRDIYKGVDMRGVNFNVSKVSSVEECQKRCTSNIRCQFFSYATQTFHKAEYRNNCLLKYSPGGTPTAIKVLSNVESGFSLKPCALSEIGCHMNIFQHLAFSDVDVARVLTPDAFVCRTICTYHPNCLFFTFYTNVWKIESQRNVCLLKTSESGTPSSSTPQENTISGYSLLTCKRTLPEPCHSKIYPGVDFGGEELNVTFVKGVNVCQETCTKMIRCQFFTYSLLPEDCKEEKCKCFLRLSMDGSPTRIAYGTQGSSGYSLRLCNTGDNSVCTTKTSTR
Sequence (P03952 391-638 limits assumed): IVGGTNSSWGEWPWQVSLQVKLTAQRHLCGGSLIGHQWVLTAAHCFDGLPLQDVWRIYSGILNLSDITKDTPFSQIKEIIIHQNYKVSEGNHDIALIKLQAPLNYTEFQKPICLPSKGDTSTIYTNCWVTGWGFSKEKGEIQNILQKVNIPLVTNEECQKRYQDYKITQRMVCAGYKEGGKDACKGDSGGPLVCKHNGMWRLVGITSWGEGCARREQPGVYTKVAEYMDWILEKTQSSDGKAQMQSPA
Test: Inhibition of human plasma kallikrein using H-D-Pro-Phe-Arg-pNA as substrate after 5 to 10 mins by micro plate reader analysis
Entries and their measured Ki follow.
Entry rule: numbers only, all in nM.

Data request: Tell me its Ki given N=C(N)c1ccc(CNC(=O)[C@@H]2Cc3ccc(cc3)NC(=O)CCN3CCCN(CCC(=O)Nc4ccc(cc4)C[C@@H](NS(=O)(=O)Cc4ccccc4)C(=O)N2)CC3)cc1 as the entry.
Data returned: 422

Data request: Tell me its Ki given N=C(N)c1ccc(CNC(=O)[C@@H]2Cc3ccc(cc3)NC(=O)CN3CCCN(CC3)CC(=O)Nc3ccc(cc3)C[C@@H](NS(=O)(=O)Cc3ccccc3)C(=O)N2)cc1 as the entry.
Data returned: 392

Data request: Tell me its Ki given N=C(N)c1ccc(CNC(=O)[C@@H]2Cc3ccc(cc3)NC(=O)CCN3CCN(CCC(=O)Nc4cccc(c4)C[C@@H](NS(=O)(=O)Cc4ccccc4)C(=O)N2)CC3)cc1 as the entry.
Data returned: 240

Further cases:
Data request: Tell me its Ki given N=C(N)c1ccc(CNC(=O)[C@@H]2Cc3cccc(c3)NC(=O)CN3CCN(CC3)CC(=O)Nc3cccc(c3)C[C@@H](NS(=O)(=O)Cc3ccccc3)C(=O)N2)cc1 as the entry.
Data returned: 3.2

Data request: Tell me its Ki given C[C@H]1CN2CC(=O)Nc3ccc(cc3)C[C@@H](C(=O)NCc3ccc(C(=N)N)cc3)NC(=O)[C@H](NS(=O)(=O)Cc3ccccc3)Cc3ccc(cc3)CNC(=O)CN1C[C@@H]2C as the entry.
Data returned: 116

Data request: Tell me its Ki given N=C(N)c1ccc(CNC(=O)[C@@H]2Cc3cccc(c3)NC(=O)CCN3CCN(CCC(=O)Nc4ccc(cc4)C[C@@H](NS(=O)(=O)Cc4ccccc4)C(=O)N2)CC3)cc1 as the entry.
Data returned: 24

----------
Target: Vitamin K-dependent protein C (Homo sapiens, UniProt P04070)
Sequence (P04070 43-197 limits assumed): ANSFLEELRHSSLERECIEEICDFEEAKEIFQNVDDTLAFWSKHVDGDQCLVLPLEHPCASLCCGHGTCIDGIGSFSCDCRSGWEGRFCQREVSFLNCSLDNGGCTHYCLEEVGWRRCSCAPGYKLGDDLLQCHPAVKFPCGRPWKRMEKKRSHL
Sequence (P04070 212-461 limits assumed): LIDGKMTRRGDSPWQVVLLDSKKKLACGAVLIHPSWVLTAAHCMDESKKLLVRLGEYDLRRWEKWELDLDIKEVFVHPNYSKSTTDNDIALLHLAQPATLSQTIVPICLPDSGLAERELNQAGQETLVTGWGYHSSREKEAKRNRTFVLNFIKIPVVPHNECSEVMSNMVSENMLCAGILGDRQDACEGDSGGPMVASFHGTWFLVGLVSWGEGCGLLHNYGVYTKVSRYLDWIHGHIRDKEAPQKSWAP
Experiment: Inhibition of human activated protein C using H-D-Lys(Cbz)-Pro-Arg-pNA as substrate after 5 to 10 mins by micro plate reader analysis
pKi: −log10 of the molar value.
observable: pKi

Completed entries (count: 2):
Data request: Under Vitamin K-dependent protein C (Homo sapiens, UniProt P04070): report pKi of N=C(N)c1ccc(CNC(=O)[C@@H]2Cc3ccc(cc3)NC(=O)CCN3CCN(CCC(=O)Nc4ccc(cc4)C[C@@H](NS(=O)(=O)Cc4ccccc4)C(=O)N2)CC3)cc1.O=C(O)C(F)(F)F .
Data returned: < 4.82

Data request: Under Vitamin K-dependent protein C (Homo sapiens, UniProt P04070): report pKi of N=C(N)c1ccc(CNC(=O)[C@@H]2Cc3ccc(cc3)NC(=O)CN3CCN(CC3)CC(=O)Nc3ccc(cc3)C[C@@H](NS(=O)(=O)Cc3ccccc3)C(=O)N2)cc1.O=C(O)C(F)(F)F .
Data returned: < 4.60

Please examine the following record next.
Data request: Under Vitamin K-dependent protein C (Homo sapiens, UniProt P04070): report pKi of N=C(N)c1ccc(CNC(=O)[C@@H]2Cc3ccc(cc3)NC(=O)CN3CCCN(CC3)CC(=O)Nc3ccc(cc3)C[C@@H](NS(=O)(=O)Cc3ccccc3)C(=O)N2)cc1 .
Data returned: < 5.00
